Data credit: patent US12715909

Biological target: T1, human IGFBP1 (human, UniProt P08833 26-259)
T1 construct: Bought protein
T1 sequence (looked up): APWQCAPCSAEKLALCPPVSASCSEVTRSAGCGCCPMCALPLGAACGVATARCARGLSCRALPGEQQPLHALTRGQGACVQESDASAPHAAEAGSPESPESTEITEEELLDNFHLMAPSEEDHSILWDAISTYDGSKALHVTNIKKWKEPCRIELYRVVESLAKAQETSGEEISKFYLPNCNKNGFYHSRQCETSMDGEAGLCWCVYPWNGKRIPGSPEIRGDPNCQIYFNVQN
Experiment: ELISA, scFv, secondary screening
quantity: binding result

E05 scFv (scFv, V domains shown, scFv as screened by ELISA) VH: EVQLVESGGGLVQPGGSLKLSCAASGFTFSGYGMNWVRQAPGKGLEWVSYVGSSSSTIYYADSVKGRFTISRDNANNSLYLQMNSLRAEDTAVYYCARGLGGNWGQGTMVTVSS VL: QPGLTQPPSASGAPGQRVTISCSGSRSNIGSNYVHWYQQLPGTAPKLIIYRNDQRPSGVPARFSASKSGTSASLAISGLRSEDEADYYCAAWDDGLSVLFGGGTKLTVL :: no binding
B09 scFv (scFv, V domains shown, scFv as screened by ELISA) VH: QVQLVQSGAEVKKPGASVKVSCKASGYTFTSYGISWVRQAPGQGLEWMGWISAYNGNTNYAQKLQGRVTMTTDTSTSTAYMELRSLRSDDTAVYYCARDLAVGTHGDYWGQGTLVTVSS VL: QSALTQPASVSGSPGQSITISCTGTSSDVGGYNYVSWYQQHPGKAPKLMIYEVSNRPSGVSNRFSGSKSGNTASLTISGLQAEDEADYYCSSYTSSSTLEVVFGGGTKLTVL :: no binding
